# assay-target: CSF1R (Homo sapiens)
# Sequence (P07333 20-972): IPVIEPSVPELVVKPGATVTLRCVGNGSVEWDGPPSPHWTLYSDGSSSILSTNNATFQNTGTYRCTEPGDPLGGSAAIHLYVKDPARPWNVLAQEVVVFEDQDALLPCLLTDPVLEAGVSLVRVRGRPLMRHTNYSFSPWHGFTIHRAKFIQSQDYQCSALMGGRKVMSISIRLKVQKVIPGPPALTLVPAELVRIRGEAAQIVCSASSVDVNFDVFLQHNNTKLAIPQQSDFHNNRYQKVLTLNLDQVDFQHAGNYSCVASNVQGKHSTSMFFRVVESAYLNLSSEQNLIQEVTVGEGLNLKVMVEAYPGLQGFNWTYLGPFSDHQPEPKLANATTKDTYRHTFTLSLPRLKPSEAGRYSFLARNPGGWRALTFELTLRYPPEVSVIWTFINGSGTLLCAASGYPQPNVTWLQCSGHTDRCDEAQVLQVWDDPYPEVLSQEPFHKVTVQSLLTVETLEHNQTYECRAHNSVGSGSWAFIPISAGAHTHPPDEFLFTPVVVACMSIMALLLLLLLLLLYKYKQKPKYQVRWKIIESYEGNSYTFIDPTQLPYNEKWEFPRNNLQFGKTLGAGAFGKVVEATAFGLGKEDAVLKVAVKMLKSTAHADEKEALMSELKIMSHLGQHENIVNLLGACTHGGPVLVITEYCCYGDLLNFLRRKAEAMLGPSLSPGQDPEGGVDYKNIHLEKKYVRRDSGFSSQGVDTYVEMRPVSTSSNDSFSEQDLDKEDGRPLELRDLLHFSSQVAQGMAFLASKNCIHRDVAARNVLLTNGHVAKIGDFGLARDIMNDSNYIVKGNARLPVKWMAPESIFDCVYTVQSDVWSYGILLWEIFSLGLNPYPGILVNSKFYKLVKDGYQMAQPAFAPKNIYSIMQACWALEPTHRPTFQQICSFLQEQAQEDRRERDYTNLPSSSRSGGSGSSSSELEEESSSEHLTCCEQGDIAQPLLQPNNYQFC
# protocol-summary: Competition binding assay, CSF1R Kd
# Design: made in house
# details: competition binding
pKd: −log10 of the molar value. Where a name gives a salt, the structure may show the parent alone.
Item-by-item account of pKd
measurement-kind: pKd

{"molecule": "C=Cc1ccc2c(c1)ncn2Cc1ccc2nc(N[C@@H]3CCCC[C@H]3O)sc2c1 [Example 183]", "value-reported": "≥ 8.30"}
{"molecule": "C=C(c1ccc2c(c1)ncn2Cc1ccc2nc(N[C@@H]3CCCC[C@H]3O)sc2c1)C(F)(F)F [Example 175]", "value-reported": "7.70 to 8.30"}
{"molecule": "N#Cc1cc(F)c2c(c1)ncn2Cc1ccc2nc(N[C@@H]3CCCC[C@H]3O)sc2c1 [Example 206]", "value-reported": "7.70 to 8.30"}
{"molecule": "Cn1nnc(-c2ccc3c(c2)ncn3Cc2ccc3nc(N[C@@H]4CCC[C@@H](O)[C@H]4O)sc3c2)n1 [Example 236]", "value-reported": "7.70 to 8.30"}
{"molecule": "O[C@@H]1CCCC[C@H]1Nc1nc2ccc(Cc3cnc4ccc(Cl)nn34)cc2s1 [Example 158]", "value-reported": "≥ 8.30"}
{"molecule": "O[C@@H]1CCCC[C@H]1Nc1nc2ccc(Cc3cnc4cc(-n5ccnc5)ccn34)cc2s1 [Example 214]", "value-reported": "≥ 8.30"}
{"molecule": "Nc1nccn(Cc2ccc3nc(N[C@@H]4CCCC[C@H]4O)sc3c2)c1=O [Example 220, acetate salt]", "value-reported": "7.30 to 7.70"}
{"molecule": "C=Cc1ccc2c(c1)ncn2Cc1ccc2nc(N[C@@H]3CCC[C@@H](O)[C@H]3O)sc2c1 [Example 232]", "value-reported": "≥ 8.30"}
{"molecule": "OC[C@H]1CCCC[C@H]1Nc1nc2ccc(Cn3cnc4cc(Br)cnc43)cc2s1 [Example 136]", "value-reported": "7.70 to 8.30"}
{"molecule": "OC1CCN(c2ccn3c(Cc4ccc5nc(N[C@@H]6CCCC[C@H]6O)sc5c4)cnc3c2)CC1 [Example 199]", "value-reported": "7.70 to 8.30"}
{"molecule": "O[C@@H]1CCCC[C@H]1Nc1nc2ccc(Cc3cnc4cccnn34)cc2o1 [Example 142]", "value-reported": "≥ 8.30"}
{"molecule": "OCCOc1ccn2c(Cc3ccc4nc(N[C@@H]5CCCC[C@H]5O)sc4c3)cnc2c1 [Example 135]", "value-reported": "7.70 to 8.30"}
{"molecule": "O[C@@H]1CCCC[C@H]1Nc1nc2ccc(Cn3cnc4cc(-n5cccn5)cnc43)cc2s1 [Example 141]", "value-reported": "≥ 8.30"}
{"molecule": "O[C@@H]1CCCC[C@H]1Nc1nc2ccc(Cc3cnc4cc(-n5nccn5)ccn34)cc2s1 [Example 215]", "value-reported": "7.70 to 8.30"}
{"molecule": "O=c1c(N2CCOCC2)nccn1Cc1ccc2nc(N[C@@H]3CCCC[C@H]3O)sc2c1 [Example 222]", "value-reported": "7.30 to 7.70"}
{"molecule": "N#Cc1cnc2c(c1)ncn2Cc1ccc2nc(N[C@@H]3CCCC[C@H]3O)oc2c1 [Example 124]", "value-reported": "7.70 to 8.30"}
{"molecule": "CS[C@@H]1CCCC[C@H]1Nc1nc2ccc(Cn3cnc4cc(F)cnc43)cc2s1 [Example 181]", "value-reported": "7.70 to 8.30"}
{"molecule": "O[C@@H]1CCCC[C@H]1Nc1nc2ccc(Cc3cnc4ccc(N5CCOCC5)nn34)cc2s1 [Example 155]", "value-reported": "≥ 8.30"}
{"molecule": "CON=C(C)c1ccn2c(Cc3ccc4nc(N[C@@H]5CCCC[C@H]5O)sc4c3)cnc2c1 [Example 204]", "value-reported": "7.70 to 8.30"}
{"molecule": "O[C@@H]1CCCC[C@H]1Nc1nc2ccc(Cn3cnc4cc(I)cnc43)cc2s1 [Example 146]", "value-reported": "7.70 to 8.30"}
{"molecule": "O[C@@H]1CCCC[C@H]1Nc1nc2ccc(Cc3cnc4sccn34)cc2s1 [Example 157]", "value-reported": "7.30 to 7.70"}
{"molecule": "Cn1nnnc1-c1cnc2c(c1)ncn2Cc1ccc2nc(N[C@@H]3CCCC[C@H]3O)sc2c1 [Example 134]", "value-reported": "7.70 to 8.30"}
{"molecule": "N#CCOc1ccc2c(c1)ncn2Cc1ccc2nc(N[C@@H]3CCCC[C@H]3O)sc2c1 [Example 196]", "value-reported": "≥ 8.30"}
{"molecule": "CN1CCN(c2ccn3c(Cc4ccc5nc(N[C@@H]6CCCC[C@H]6O)sc5c4)cnc3c2)CC1 [Example 188]", "value-reported": "7.70 to 8.30"}
{"molecule": "CC(C)(O)C#Cc1cnc2c(c1)ncn2Cc1ccc2nc(N[C@@H]3CCCC[C@H]3O)sc2c1 [Example 104]", "value-reported": "≥ 8.30"}
{"molecule": "CS(=O)(=O)c1ccc2c(c1)ncn2Cc1ccc2nc(N[C@@H]3CCCC[C@H]3O)sc2c1 [Example 112]", "value-reported": "7.30 to 7.70"}
{"molecule": "O[C@@H]1CCCC[C@H]1Nc1nc2ccc(Cc3cnc4cccc(F)n34)cc2s1 [Example 186]", "value-reported": "7.70 to 8.30"}
{"molecule": "O[C@@H]1CCCC[C@H]1Nc1nc2ccc(Cc3cnc4[nH]c5ccccc5n34)cc2s1 [Example 205]", "value-reported": "7.70 to 8.30"}
{"molecule": "CS(=O)(=O)c1ccc2ncn(Cc3ccc4nc(N[C@@H]5CCCC[C@H]5O)sc4c3)c2c1 [Example 113]", "value-reported": "7.30 to 7.70"}
